meta.source: paper PMC9482650

# System name: T1, ARHGEF11, O15085
# T1 sequence (O15085 42-136, limits assumed, looked up): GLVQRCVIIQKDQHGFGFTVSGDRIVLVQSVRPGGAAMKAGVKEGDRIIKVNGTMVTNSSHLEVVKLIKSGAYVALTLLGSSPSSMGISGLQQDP
# Test details: holdup assay
# Set-up: key: below the threshold = too weak to quantify, mostly under pKd 3.1 to 4
# Settings: plain residues with an end cap or a label only (N-terminal biotin on a linker: ado-ado)
Measurement type: pKd

> print(dat)
                                     binder  recorded.measurement
1  KRPEMTSSSV [MUC3A, MUC3B, Q02505;Q9H195]                  3.74
2              PSHPRLQTHV [KIRREL2, Q6UWL6]                  4.06
3                DTKNYKQTSV [CRIPT, Q9P021]                  4.12
4                VLYPREGTEV [FOXI1, Q12951]                  4.54
